- Test system: CDK4/CyclinD3 (Homo sapiens, UniProt P11802)
- Construct: purchased Wuxi Biortus Biosciences Co. Ltd
- Sequence (P11802 whole entry, species assumed): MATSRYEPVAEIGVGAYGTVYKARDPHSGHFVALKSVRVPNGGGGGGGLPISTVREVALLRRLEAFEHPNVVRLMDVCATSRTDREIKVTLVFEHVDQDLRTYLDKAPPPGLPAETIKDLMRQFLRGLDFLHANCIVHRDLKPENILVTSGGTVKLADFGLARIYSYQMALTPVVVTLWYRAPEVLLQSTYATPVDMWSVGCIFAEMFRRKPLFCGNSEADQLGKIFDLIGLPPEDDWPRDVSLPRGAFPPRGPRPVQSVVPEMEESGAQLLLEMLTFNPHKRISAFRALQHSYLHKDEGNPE
- Sequence (P30281 whole entry partner, species assumed): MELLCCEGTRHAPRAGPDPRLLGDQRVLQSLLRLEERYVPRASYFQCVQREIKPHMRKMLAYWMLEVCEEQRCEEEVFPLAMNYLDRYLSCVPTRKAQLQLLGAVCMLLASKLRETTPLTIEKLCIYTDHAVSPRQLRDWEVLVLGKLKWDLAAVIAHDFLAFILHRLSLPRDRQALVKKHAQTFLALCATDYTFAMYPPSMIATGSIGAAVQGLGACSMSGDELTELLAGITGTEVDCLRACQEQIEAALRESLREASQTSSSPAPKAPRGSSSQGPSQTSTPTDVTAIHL
- Method summary: In-vitro kinase inhibitory activity, CDK4/CyclinD3 (Caliper EZ Reader II mobility shift)
- Type: biochemical
- Condition description: CDK4/CyclinD3 20 nM, ATP 2 mM, Peptide 1 μM, 27° C., 180 min; read-out: IC50 (half maximal inhibitory concentration, nM) CDK4
Quantity kind: IC50 (nM)

molecule="CC(=O)c1c(C)c2cnc(Nc3ccc(N4CCN(CC(=O)N5CCC(C(=O)N6CCN(c7ccc8c(c7)CN([C@H]7CCC(=O)NC7=O)C8=O)CC6)CC5)CC4)cn3)nc2n(C2CCCC2)c1=O [Compound 7]" quantity_kind=IC50 recorded_number=54.7

[a] CC(=O)c1c(C)c2cnc(Nc3ccc(N4CCN(CCC5CCN(c6ccc7c(c6)CN(C6CCC(=O)NC6=O)C7=O)CC5)CC4)cn3)nc2n(C2CCCC2)c1=O (stereo not drawn) [Compound 13]
[b] CC(=O)c1c(C)c2cnc(Nc3ccc(N4CCN(CCN5CCN(c6ccc7c(c6Cl)CN(C6CCC(=O)NC6=O)C7=O)CC5)CC4)cn3)nc2n(C2CCCC2)c1=O (stereo not drawn) [Compound 20]
[Q] # min-compare on IC50 between a and b Selection: enter the item's label.
[A] b
(b: 44.6 nM, a: 71.1 nM)

Where do these numbers come from? They come from patent US11485735B2.
